The entries below are paired with their reported EC50.
target_under_test: human muscarinic M3 receptor (Homo sapiens)
Construct: expressed in transfected cells
Sequence (P20309 whole entry): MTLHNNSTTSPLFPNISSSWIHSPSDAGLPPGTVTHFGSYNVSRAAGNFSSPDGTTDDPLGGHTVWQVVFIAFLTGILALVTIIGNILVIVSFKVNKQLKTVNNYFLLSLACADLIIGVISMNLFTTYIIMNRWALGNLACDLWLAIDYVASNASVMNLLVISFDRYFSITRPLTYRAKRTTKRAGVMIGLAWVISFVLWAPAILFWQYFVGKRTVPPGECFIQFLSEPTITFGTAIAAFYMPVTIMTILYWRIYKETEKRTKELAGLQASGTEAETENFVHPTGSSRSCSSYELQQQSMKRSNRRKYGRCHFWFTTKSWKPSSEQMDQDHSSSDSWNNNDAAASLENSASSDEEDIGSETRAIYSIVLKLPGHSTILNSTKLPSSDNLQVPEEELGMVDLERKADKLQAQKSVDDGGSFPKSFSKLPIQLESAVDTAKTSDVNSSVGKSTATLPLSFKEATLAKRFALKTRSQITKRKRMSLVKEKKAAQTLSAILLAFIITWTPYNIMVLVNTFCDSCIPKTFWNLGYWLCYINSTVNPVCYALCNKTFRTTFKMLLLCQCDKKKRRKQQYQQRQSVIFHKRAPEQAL
assay_method_text: Alphascreen Surefire phospho-ERK1/2 functional assay, M3
Format: cell-based
settings: CHO cells stably expressing human M3; phospho-ERK1/2; read-out: pEC50 M3 (converted)

C#CCOC(=O)N1CCCN(C2CCC(C#N)(c3ccc(OC)cn3)CC2)CC1 (single isomer, unassigned) [3-31 Isomer 1] | > 20 µM
CCOC(=O)N1CCCN(C2CCC(C#N)(c3ccc(Br)cn3)CC2)CC1 (single isomer, unassigned) [3-17 Isomer 1] | > 20 µM

Exercise: Give the measured EC50 of O=C1Nc2ccccc2C12CCC(N[C@@H]1CC[C@H](c3nc(C(F)(F)F)no3)C1)CC2 (single isomer, unassigned) [24-1 Isomer 1] .
Solution: > 20 µM
